measurementDescription: yeast display, Sf9 membrane polyspecificity reagent, FACS + sequencing; frameworks hold sequencing errors
attributeMeasured: polyreactivity (PSR sort gate)

In the examples that follow, each entry is paired with its recorded polyreactivity (PSR sort gate).
1. QVQLVESGGGLVQAGGSLRLSCAASGYTFSNNAMGWYRQAPGKERELVAAISRSTGSTYYADSVKGRFTISRDNAKNTVYLQMNSLKPEDTAVYYCAAEYYVDKSSWYDYWGQGTQVTVSS | high polyreactivity
2. QVQLVESRGGLVQAGGSLRLSCAASGRTFYSYAMGWSRQAPGKERELVAAITSSGGSTYYADSVKGRFTISRDNAKNTVYLQMNSLKPEDTAVYYCAAGKPYSSYWSWGYWTNLEDDYWGQGTQVTVSS | high polyreactivity
3. QVQLVESGGGLVQAGGSLRLSCAASGRIFKVNAMVWYRQPPGKERELVAAIRWSGGSTYYADSVKGRFTISRDNAKNTVYLQMNSLKPEDTAVFYCAATWSRRFDYWGQGSQVTVSS | low polyreactivity
4. QVQLVESGGGLVQAGGSLRLSCAASGSIFPKYAMGWYRQAPGKERELVAGISRSGGITHYADSVKGRFTISRDNAKNTVYLQMNSLKPEDTAVYYCAALWARALSYYYWGQGTQVTVSS | high polyreactivity
5. QVQLVESGGGLVQAGGTLRLSCAASGSTFNEYAMGWYRQAPGKERELVAAIDERGGNTYYADSVKGRFTISRDNAKNTVYLQMNSLKPEDTAVYYCAADAYPYYQSYYPFEYWGQGTQVTVSS | low polyreactivity
6. QVQLVESGGGLVQAGGSLRLSCAASGITFARYTMGWYRQAPGKERELVAAITWSGGRTYYADSVKGRFTISRDNAKNTVYLQMNSLKPEDTAVYYCNVDLGRYGTSSGASVGYGDYDYWGQGTQVTVSS | high polyreactivity
7. QDQLVESGGGLVQAGGSLRLSCASSGSTFNIYAMGWYRQAPGKERELVAAITSRGTSTYYADSVKGRFTISRDNAKNTVYLQMNSLKPEDTAVYYCAAEVSGNYYRYNYWGQGTQVTVSS | high polyreactivity
8. QVQLVESGGGLVQAGGSLRLSCAASGSIFPSYAMGWFRQAPRKERELVAAISRSAGSTYYADSVKGRFTISRDNAKNTVYLQMNSLKPEDTAVYYCAADGYSSRYRFDYWGQGTQVTVSS | low polyreactivity
9. QVQLVESGGGLVQAGGSLRLSCAASGSTFIYYAMGWYRQAPGKEREFVAAISYRGGSTYYADSVKGRFTISRDNAKNTVYLQMNSLKPEDTAVYYCAASYRKWNDYWGQGTQVNVSS | high polyreactivity
10. QFQLVESGGGLDQAGGSLRLSCAASGITFGNYAMGWYRQAPGKERELVAAITGSGGRTNYADSVKGRFTISRDNAKNTVYLQMNSLKPEDTAVYYCNRRQYGRKKQYDYWGQGTQVTVSS | high polyreactivity

As a next step, examine the sequence that follows.
sequence "QVQLVESGGGLVQAGGSLRLSCAASGFTFRQNAMGWYRQAPRKERELVAAISSGGRTKYADSVKGRFTISRDNANNTVYLHMNSLKPEDTALYYCAADKRVYTQLNDSWGQGTQVTVSS" , polyreactivity (PSR sort gate) observed: high polyreactivity

---

measurementDescription: yeast display, Sf9 membrane polyspecificity reagent, FACS + sequencing; frameworks hold sequencing errors
attributeMeasured: polyreactivity (PSR sort gate)

Some sequences with known polyreactivity (PSR sort gate) results, for comparison:
1. QVQLVESGGGLVQAGGSLRLSCAASGFTLDWYVMGWYRQAPGKEREFVASIRYSGGSTYYADSVKGRFTISRDNAKNTVYLQMNRLKTEDTAVYYCAARTVTLSYLYYYWGQGTQVTVSS | high polyreactivity
2. QVQLVESGGGLVQAGGSLRLSCAASGRIFGVYAMGWYRQAPGKERELVATITSGGSTSYADSVKGRFTISRDNAKNTVYLQMNSPKPEDTAVYYCNAPYSFFWQQMNYWGQGTQVTVSS | low polyreactivity
3. QVQLVESGGGLVQAGGSLRLSCAASGSIFSRYTMGWYRQAPGKERELVAAISSGGSTNYADSVKGRFTISRDNAKNTVYLQMNRLKPEDTAVYYCAARSYRYYYGFDYWGQGTQVTVSS | low polyreactivity
4. QVQLVESGGGLVQAGGSLRLSCAASGFIFYRYAMGWYRQAPGKERELVAAISRSGGTTYYADSVKGRFTISRDNAKNTVYLQMNSLKPEDTAVYYCNVKRGTIGGYYYWGQGTQVTVSS | high polyreactivity
5. QVQIVESGGGLVQAGGSLRLSCAASGSTFSRYAMGWYRQAPGKERELVAVITKSGGRTYYADSVKGRFRISRDNAKNTVYLQKHSLKAEDTADYYCAAYPNKSQTADGYWGQGTQVTVSS | high polyreactivity
6. QVQLVESGGGLVQAGGSLRLSCAASGFTFFRYAMGWYRQAPGKERELVATITRGGSTNYADSVKGRCTISRDNAKNTDYLQMNSLQPEDTAVYYCNKDKKTPTFDYWGQGTQVTVSS | low polyreactivity

List reported polyreactivity (PSR sort gate) for each of these sequences:
1. QVQLVESGGGLDQAGGSLRLSCAASGRTFYYYAMAWYRQAPRTERELVAAIRRSGSSTYYADSVKGRFTISRDNAKNTVYLQMNSLKPEDTAFYYCAAAVYQRARYYWGQGTQVTVSS
2. QVQLVESGGGLVQAGGSLRLICAASGRTFGRYAMGWYRQAPGKERELVADIDYGGGSTYYADSEKGRFTISRDNAKNTVYLQMNSLKPEDTAVYYCNARRDIGWGYHMDYWGQGTQVTVSS

**Result**
1: high polyreactivity; 2: high polyreactivity

// each listed sequence needs a value for polyreactivity (PSR sort gate)
1. QVQLVESGGGLVQAGGSLRLSCAASGRIFGYYAMGWYRQAPGKERELVAAINSGSRTYYADSVKGRFTISRDNAKNTVYLQMNSLKPEDTAVYYCAARVRYPPYRSSDGQRGGYWGQGTQVTVSS
2. QVQLVESGGGIVQAGGSLRLSCAASGIIFRAYAMGWSRQAPGKDRELVAAISWSGGSTYYADSVKGRFTISRDNAKNTVYLQMNSLKPEDTAVYYCAARRWKGYYYWGQGTQVNVSS
3. QVQLVESGGGLVQAGGSLRLSCAASGINFVRNAMGWYRQAPGKERELVAAITGRGVSTYYADSVKGRFTISRDNAKNTVYLQMKSLKPEDTAVYYCAARYSSRGTYPRRYDYWGQGTQVTVSS
4. QDQLVESGGGLVQAGGSLRLSCAASGFTFYPYAMGWYRQAAGKERELVASITNGGSTNYADSVKGRFTISRDNAKNTVYLQMNSLKPEDTAVYYCNAAYGFYASRYWYASYDYWGQGTQVTVSS
5. QVQLVESGGGLVQAGGSLRLSCAASGRTIYQYAKGWYRPAPGKERELVAAISRGGSTNYADSLKGRFTISRDNAKNTVLLQLNSLKPEDTAVYDCASWYKCLSLKRLYERDYWGHGTQVTVSS

**Result**
1. high polyreactivity
2. high polyreactivity
3. high polyreactivity
4. low polyreactivity
5. high polyreactivity

These measurements were taken from the nanobody polyreactivity screen of Harvey et al. (2022).
